# method_notes: 14C assay with IPTG-induced recombinant E. coli cells (14CO2 capture from [14C]-carboxyl-labeled dicamba)
# assay_conditions: IPTG-induced recombinant E. coli cells; [14C]-carboxyl-labeled dicamba; 14CO2 capture
quantity_measured: Dicamba Decarboxylase Activity

1. 58 (protein, Mycobacterium colombiense) MARVIALEEHYATTEFLRGPGTWLASRPGIVEPAGDLGDGRIAAMDQAGVDLAVLSLAAPGVEQLDPDDAVRLARDCNDQLAAAVRRYPDRLAGFATVPTSAPDRAADELERAVRGLGFPGAVINGHSRGRYLDDPFFEPVLARAAELQAPIYLHPTIPPAGVIESSYAGFAEPVTFALATVGWGWHINTATHALRMILGGVFDRHPSLQMIIGHMGEATSFMLPRFDATLKPELTGLNHPVSSYLRENFHYTFANFNDHATYANLVAQVGIERVAFSADYPFGSMVDARAFLDGLPLSDDERAAISHRNAEKLLGL | High
2. 23 (protein, listed as Aplysina aerophoba) MAIDIDARSQPGLETARRAMSRRDFLGGAAAFGITAAATTALPASTAAGEEEDLFLLGLEEHFATAELRRLNGIQFPQGTPRFDINDVGAGRIADMDAAGIDIQVLSALTPGAQNLPGAEGVAYARRLNSWVAHEVIPAYPGRFRAFATLPLSEPQAAADELEYAVRELGFLGCMTYGAVDGKFLDHADFVPVLARAETLDVPIYIHPNWASPQVMDTYYNGLGNEWVSRVLSGAGYGWHQEVALQCLRMIASGVFDRFPRLQIIVGHMGEGLPFFYWRFGDDLARITADTLEKPVQQYFHDNFWITTSAFFRDELLRLVLSVMGEDRVMFAVDYPFVSNKVGADWFRAVDLPRNVKEKIAHKNAERLLKIGPF | Low
